- Tested on: RPMI-8226 leukemia
- procedure-summary: NCI tumour cell line growth inhibition, 48 h; in the data active = GI50 below about 0.43 µM; inactive = the rest
Outcomes: y = active, n = inactive

• Cn1ncnc1[C@H]1c2n[nH]c(=O)c3cc(F)cc(c23)N[C@@H]1c1ccc(F)cc1 = n
• O=C(Nc1cccc(-n2cc(-c3ccncc3)c(-c3ccc(Cl)c(O)c3)n2)c1)Nc1cc(C(F)(F)F)cc(C(F)(F)F)c1 = n
• Cc1ccc(S(=O)(=O)c2c(COC(=O)c3cccc(C)c3)c(-c3ccccc3)nn2C)cc1 = n
• O=C1OCC2=C1C(c1cccc(Cl)c1)c1cc3c(cc1N2CCO)OCCO3 (stereo not drawn) = y
• Cc1cc2c(cc1Cl)SC1=NN(C)C(C)N1S2(=O)=O (stereo not drawn) = n
• CC1=C(C(=O)Nc2ccc3n[nH]c(C)c3c2)C(c2ccc(C(F)(F)F)cc2)CC(=O)N1 (stereo not drawn) = n
• Cc1cc([N+](=O)[O-])c(NS(=O)(=O)c2cccc(C(=O)O)c2)cc1-c1cccnc1 = n
• CC(=O)[CH-]C(=O)c1ccccc1.CC(=O)[CH-]C(=O)c1ccccc1.CC[O-].CC[O-].[Hf+4] = n
• COc1cccc(-c2c[nH]c3c(N/N=C/c4ccncc4)ncnc23)c1 = n
• NCCCC[C@@H]1NC(=O)[C@H]2CCCN2C(=O)[C@H](Cc2ccccc2)CNC(=O)[C@H](Cc2ccccc2)NC1=O = n
• Cc1ccccc1OCC(O)CN1CCN(c2ccc(Cl)cc2)CC1 (stereo not drawn) = n
• C=Cc1cncc(C#N)c1CCc1c(C#N)cncc1C=C = n
• COc1ccc2c(c1)c(CC(=O)[Se]C)c(C)n2C(=O)c1ccc(Cl)cc1 = n

* * *

// reported GI50 per item
- System: UO-31 renal
- procedure-summary: NCI tumour cell line growth inhibition, 48 h
reported-endpoint: GI50

* O=C(Nc1cccc(-n2cc(-c3ccncc3)c(-c3ccc(Cl)c(O)c3)n2)c1)Nc1cc(C(F)(F)F)cc(C(F)(F)F)c1 | 0.676 µM
* Cc1ccc(S(=O)(=O)c2c(COC(=O)c3cccc(C)c3)c(-c3ccccc3)nn2C)cc1 | > 100 µM
* Cc1cc2c(C(C)C)c(O)c(O)cc2c(O)c1-c1c(C)cc2c(C(C)C)c(O)c(O)cc2c1O | 14.9 µM

* * *

- System: SNB-19 CNS
- procedure-summary: NCI tumour cell line growth inhibition, 48 h
// reported TGI per item
reported-endpoint: TGI

• Cc1ccc(OCC2OC(n3cnc4c(Cl)nc(N)nc43)CC2Oc2ccc(C)cc2)cc1 (centres undefined) = > 100 µM
• Cc1cccc(Nc2nn3c(=O)c4c5c(sc4nc3s2)CCCC5)c1 = > 100 µM
• Cc1cc(C)nc(SC2=C(Nc3ccc(C)c(Cl)c3)C(=O)N(Cc3ccccc3)C2=O)n1 = > 160 µM
• C=C(C(N)=O)c1ccc([N+](=O)[O-])o1 = > 100 µM
• CCOC(C[C@H](O[Si](C)(C)C(C)(C)C)[C@H]1COC(=S)S1)OCC = > 100 µM
• CCCCCCC[CH2][Sn]([CH2]CCCCCCC)([O]c1cccc2cccnc12)[O]c1cccc2cccnc12 = 9.31 µM
• CC(=O)NCCC1CN(C(=O)/C=C/I)c2ccccc21 (centres undefined) = 27.9 µM
• CC1=C(c2cccc(O)c2)[C@H](c2ccc(OCCN3CC(CF)C3)cc2)Oc2ccc(O)cc21 = 22.1 µM
• CN(C)CCN1C(=O)c2c(c3c4ccccc4n4c3c3c2c2ccccc2n3C2CC(O)C(O)C4(C)O2)C1=O (centres undefined) = 11.8 µM
• O=S(=O)(/C=C/c1ccc(F)cc1)Cc1ccc(CS(=O)(=O)/C=C/c2ccc(F)cc2)cc1 = > 100 µM
• O=C(O)CC[C@H](NC(=O)c1ccc(-n2nc3ccc(O)cc3nc2=O)cc1)C(=O)O = > 100 µM
• Cc1cn(C2CC3C(COCN3O)O2)c(=O)[nH]c1=O (centres undefined) = > 100 µM
• CC(=O)Oc1cc2c(cc1OC(C)=O)OCC(c1ccc(C)cc1)C2 (centres undefined) = 124 µM
• CSc1nnc(CCC(=O)Nc2c(C)cccc2C)o1 = > 100 µM
• ClCCCc1ccccc1C1=NCCc2ccccc21 = > 100 µM
• Cn1ncnc1[C@H]1c2n[nH]c(=O)c3cc(F)cc(c23)N[C@@H]1c1ccc(F)cc1 = > 100 µM
• COC(OC)[C@@H]1OC[C@H](n2cnc3c(N)ncnc32)[C@H]1O = > 100 µM
• OC1(c2ccccc2)CCN(Cc2c[nH]c3ccccc23)CC1 = > 100 µM
• CCOc1cc2c(C(=O)CC)c(O)ccc2o1 = > 100 µM
• O=S(Nc1ccccc1)c1ccc(N2CCOCC2)cc1 (centres undefined) = > 100 µM
• CC(C)=NN/C(=N\S(=O)(=O)c1ccc(Oc2cccc(Cl)c2C#N)cc1)Nc1ccc(Cl)cc1 = > 100 µM
• CC(=O)Nc1ccc(S(=O)(=O)N/N=C/CN2C(=O)c3ccccc3C2=O)cc1 = > 100 µM
• CC(=O)[CH-]C(=O)c1ccccc1.CC(=O)[CH-]C(=O)c1ccccc1.CC[O-].CC[O-].[Hf+4] = > 100 µM
• N#C/C(=C\c1ccsc1)c1nc2ccccc2o1 = > 100 µM
• C[C@H](NC(=O)C(Cc1ccccc1)(Cc1ccc(O)cn1)NC(=O)c1ccccc1)c1ccccc1 (some centres undefined) = 39.4 µM
• CSCCC(N)C(=O)NCCNc1ccc(NCCNC(=O)C(N)CCSC)c2c1C(=O)c1ccccc1C2=O (centres undefined) = 5.81 µM
• CC1=NN(C(=O)c2ccccc2O)C(=O)/C1=C/c1ccc(O)cc1 = > 100 µM
• COC(C(=O)NN)c1ccccc1 (centres undefined) = > 100 µM
• O=C1C(Nc2ccc(Cl)cc2)=C(I)C(=O)c2ncccc21 = 3.23 µM
• C=C/C=C/NC(=O)OCc1ccccc1 = > 100 µM
• O=c1cc(N2CCCC2)[nH]c(=O)n1Cc1ccccc1 = > 100 µM
• COc1ccc2c(c1)NC1=C(C(=O)OC1)C2c1cc(OC)c2c(c1)OCO2 (centres undefined) = > 100 µM
• COc1ccc2c(c1)C(=O)c1ccc(OC)cc1C2=S = > 100 µM
• NC(=O)CN(CC(N)=O)C(N)=O = > 100 µM
• Cc1nc(Nc2ccccc2)sc1C(=O)CC(=O)C(=O)Nc1c(C(C)C)cccc1C(C)C = > 100 µM
• CCOC(=O)/C(C1=NCCN1)=C(\O)c1ccccc1 = > 100 µM
• C=C[C@@H](C)[C@H](NS(=O)(=O)c1ccc(C)cc1)C(=O)OCC = > 100 µM
• Cc1cc(-c2nc3cc(F)ccc3s2)ccc1NC(=O)[C@@H](N)CCCCN = 28.9 µM
• COc1c(O)c(C=O)c2c(O)c(-c3c(C)cc4c(C(C)C)c(OC)c(O)c(C=O)c4c3O)c(C)cc2c1C(C)C = 16.5 µM

* * *

// reported GI50 per item
- System: CCRF-CEM leukemia
- procedure-summary: NCI tumour cell line growth inhibition, 48 h
reported-endpoint: GI50

- COc1ccc(CCN2CC=Cn3c2nc2ccccc2c3=O)cc1: 30 nM
- O=C1C(Nc2ccc(Cl)cc2)=C(I)C(=O)c2ncccc21: 784 nM
- C=Cc1cncc(C#N)c1CCc1c(C#N)cncc1C=C: > 100000 nM
- C[C@H]1CC[C@@]2(NC1)O[C@H]1C[C@H]3[C@@H]4CC[C@H]5C[C@@H](O)CC[C@]5(C)[C@H]4CC[C@]3(C)[C@H]1[C@@H]2C: 18300 nM

* * *

// reported TGI per item
- System: HL-60(TB) leukemia
- procedure-summary: NCI tumour cell line growth inhibition, 48 h
reported-endpoint: TGI (µM)

* O=C(NCCCCCCCCCCCCNC(=O)Nc1cccc2ccccc12)Nc1cccc2ccccc12 | 37.3
* CN(C)CCN1C(=O)c2c(c3c4ccccc4n4c3c3c2c2ccccc2n3C2CC(O)C(O)C4(C)O2)C1=O (configuration not stated) | 12.8
* C=C/C(C)=C\CC1[C@](C)(O)CC[C@H]2C(C)(C)C(=O)CC[C@]12C (some centres not stated) | 60
* O=C(Nc1cccc(-n2cc(-c3ccncc3)c(-c3ccc(Cl)c(O)c3)n2)c1)Nc1cc(C(F)(F)F)cc(C(F)(F)F)c1 | 6.63
* Cc1cc2c(C(C)C)c(O)c(O)cc2c(O)c1-c1c(C)cc2c(C(C)C)c(O)c(O)cc2c1O | 34.1

* * *

- Tested on: U251 CNS
- procedure-summary: NCI tumour cell line growth inhibition, 48 h
// reported TGI per item
reported-endpoint: TGI (µM)

- COc1ccc2c(c1)C(=O)c1ccc(OC)cc1C2=S: 61.7
- C=C(C(N)=O)c1ccc([N+](=O)[O-])o1: 34.6
- O=C1NC(Nc2ccccc2)=NC(C(F)(F)F)(C(F)(F)F)N1: 87.9
